assay: Inhibition of aggregation of human gel-filtered platelets measured by light transmittance method at 37 degrees C.
reported_endpoint: IC50
Reply with the number and its unit after it.

Sample `O=C(CN1CCc2ccc(N3CCNCC3)cc2C1=O)NC[C@H](NS(=O)(=O)c1ccccc1)C(=O)O` ; IC50 observed: 35 nM

Sample C#C[C@H](CC(=O)O)NC(=O)CN1CCc2ccc(N3CCNCC3)cc2C1=O [L-767679] ; IC50 observed: 15 nM

Sample `C#C[C@H](CC(=O)O)NC(=O)C[C@H]1CCCN(CCc2ccnc(N)c2)C1=O` ; IC50 observed: 19 nM

Sample `O=C(O)C[C@@H](CO)NC(=O)c1ccc2c(c1)C(=O)N(CCC1CCNCC1)C2` ; IC50 observed: 8 nM

Sample `O=C(NC[C@H](NS(=O)(=O)c1ccccc1)C(=O)O)c1ccc(OCCC2CCNCC2)cc1` ; IC50 observed: 13 nM

Sample `C#C[C@H](CC(=O)O)NC(=O)C[C@H]1CCCN(CCC2CCNCC2)C1=O` ; IC50 observed: 15 nM

Sample `C[C@@H](/C=C/CN1CCC[C@@H](CCC2CCNCC2)C1=O)CC(=O)O` ; IC50 observed: 57 nM

Sample `O=C(NC[C@H](NS(=O)(=O)c1ccccc1)C(=O)O)c1cc2cc(OCCC3CCNCC3)ccc2[nH]1` ; IC50 observed: 10 nM

Sample C#CC(CCCN1CCC[C@@H](CCC2CCNCC2)C1=O)CC(=O)O (some centres undefined) ; IC50 observed: 51 nM

Sample `O=C(O)C[C@H](NC(=O)CN1CCc2ccc(N3CCNCC3)cc2C1=O)c1cccnc1` ; IC50 observed: 13 nM

Sample `O=C(NC[C@H](NS(=O)(=O)c1ccccc1)C(=O)O)c1ccc2c(c1)C(=O)N(CCC1CCNCC1)C2` ; IC50 observed: 8 nM

Sample `O=C(CN1CCC[C@@H](CCC2CCNCC2)C1=O)NC[C@H](NS(=O)(=O)c1ccccc1)C(=O)O` ; IC50 observed: 11 nM

Sample `O=C(O)C[C@@H](CO)NC(=O)CN1CCc2ccc(N3CCNCC3)cc2C1=O` ; IC50 observed: 81 nM

Sample `O=C(O)C[C@H](NC(=O)C[C@H]1CCCN(CCC2CCNCC2)C1=O)c1cccnc1` ; IC50 observed: 9 nM

* * *

assay: Inhibition of aggregation of human gel-filtered platelets measured by light transmittance method at 37 degrees C.
reported_endpoint: pIC50
pIC50 is defined as minus the log10 of a concentration measured in mol/L.

Sample C#CC(CC(=O)O)NC(=O)CN(C(=O)c1cccc(C2CCNCC2)c1)C1CC1 (centres undefined) ; pIC50 observed: 7.82

Sample `C#C[C@H](CC(=O)O)NC(=O)c1ccc2c(c1)C(=O)N(CCc1ccnc(N)c1)C2` ; pIC50 observed: 7.57

Sample `O=C(O)C[C@H](NC(=O)CN1CCC[C@@H](CCC2CCNCC2)C1=O)c1cccnc1` ; pIC50 observed: 8.00

Sample `O=C(O)CCNC(=O)CN1CCc2ccc(N3CCNCC3)cc2C1=O` ; pIC50 observed: 6.85

Sample `Cc1ccc(S(=O)(=O)N[C@@H](CNC(=O)c2cc3n(n2)CCCN(CCC2CCNCC2)C3=O)C(=O)O)cc1` ; pIC50 observed: 8.10

Sample `C[C@H](CC(=O)O)NC(=O)CN1CCC[C@@H](CCC2CCNCC2)C1=O` ; pIC50 observed: 7.49

Sample CC(CC(=O)O)NC(=O)c1ccc2c(c1)C(=O)N(CCC1CCNCC1)C2 (centres undefined) ; pIC50 observed: 7.19

Sample `C#C[C@H](CC(=O)O)NC(=O)CN1CCC[C@@H](CCC2CCNCC2)C1=O` ; pIC50 observed: 7.89

Sample `C#C[C@H](CC(=O)O)NC(=O)CN1CCC[C@@H](CCc2ccnc(N)c2)C1=O` ; pIC50 observed: 7.55

Source listed as BindingDB's records for doi:10.1016/s0960-894x(00)00385-1.
